So I've got a bunch of compounds here, and I need their GI50 values.
- System: MDA-MB-435
- experimental-details: NCI tumour cell line growth inhibition, 48 h
Active and inactive are the calls of the source. No stated cut-off is given here; in the data, active = GI50 up to about 1.1 µM and inactive = higher.

Input line: Need GI50 of C[C@@H]1S[C@H](c2c(F)cccc2Cl)n2c1nc1ccccc12 , thanks.
Output line: 12.6 µM (inactive)

Input line: Do the same for CCOc1cn(C2CC(O)C(CO)O2)c(=O)[nH]c1=O (stereo not given) please
Output line: > 100 µM (inactive)

Input line: Do the same for C=CCN(c1cc(OCc2ccccc2)c2[nH]cc(C)c2c1)S(C)(=O)=O please
Output line: 72.1 µM (inactive)

Input line: Do the same for C=C[C@]1(C)CC(=O)C(C(C)C=O)[C@]12C(=O)Oc1cccc(C)c1C2=O (stereo not given in full) please
Output line: 15.2 µM (inactive)

Input line: Do the same for CC1CC[P+](c2ccccc2)(c2ccccc2)c2c1ccc1ccccc21 (stereo not given) please
Output line: 2.78 µM (inactive)

* * *

- System: SF-539
- experimental-details: NCI tumour cell line growth inhibition, 48 h
The source made the active and inactive calls. Cut-off read from the data, not from the text of the source: active = GI50 up to about 1.1 µM and inactive = higher.
Your reply should match one of these outcome classes. active, inactive

Input line: Give the logged outcome of this assay for the following compound: O=C(O)CSc1n[nH]c(=O)[nH]c1=O
Output line: inactive

Input line: Do the same for O=C(Cc1ccccc1)NN1C(=O)/C(=C\c2ccccc2)S/C1=N\c1ccccc1 please
Output line: inactive

Input line: Do the same for CN(C)c1ccc(/N=N/c2ccc3[nH]cnc3c2)cc1 please
Output line: inactive

Input line: Do the same for Cc1cc(NCCCCCCNc2cc(C)nc3ccc(Cl)cc23)c2cc(Cl)ccc2n1 please
Output line: inactive

Input line: Do the same for Cn1c2c(c3ccccc31)CCN(CCCCN1CCc3c(n(C)c4ccccc34)C1=O)C2 please
Output line: inactive

Input line: Do the same for CSc1s[s+]c(SC)c1[O-] please
Output line: inactive

Input line: Do the same for C[N+](C)(C)CC(=O)N/N=C/c1oc(-c2cccc([N+](=O)[O-])c2)c(-c2cccc([N+](=O)[O-])c2)c1[N+](=O)[O-] please
Output line: inactive

Input line: Do the same for CC(=O)Oc1cc2c(cc1OC(C)=O)OCC(c1ccccc1)C2 (stereo not given) please
Output line: inactive

Input line: Do the same for C=C[C@]1(C)CC(=O)C(C(C)C=O)[C@]12C(=O)Oc1cccc(C)c1C2=O (stereo not given in full) please
Output line: inactive

Input line: Do the same for COc1ccc(CC2c3cc(Oc4cc(CC5c6cc(OC)c(OC)cc6CCN5C)ccc4O)c(OC)cc3CCN2C)cc1 (stereo not given) please
Output line: inactive

Input line: Do the same for CC(C)(C)OC(=O)NCCCNC1(c2cc3ccccc3s2)CCCCC1 please
Output line: inactive

Input line: Do the same for O=C(c1ccccc1)N1CCC(CC2(c3cc4ccccc4[nH]3)OCCO2)CC1 please
Output line: inactive

Input line: Do the same for CC(C)CC(NC(O)[BH2-][N+](C)(C)C)C(=O)NC(Cc1ccccc1)C(=O)N[C@H]1c2ccsc2/C(=N/O)[C@H]1O (stereo not given in full) please
Output line: inactive

Input line: Do the same for COc1cc(O)c2c(=O)c3ccccc3n(C)c2c1 please
Output line: inactive

Input line: Do the same for COCOc1cc(OC)ccc1C=O please
Output line: inactive

Input line: Do the same for COC(=O)C(C(=O)C(=O)Nc1ccc(C)cc1)c1nc2ccc([N+](=O)[O-])cc2nc1O (stereo not given) please
Output line: inactive

Input line: Do the same for O=C1CCc2cc3c(cc21)C(C(=O)O)CC3 (stereo not given) please
Output line: inactive

Input line: Do the same for COc1cc(C2c3cc4c(cc3[C@@H](Nc3ccc(C(=O)O)cc3)C3COC(=O)[C@H]23)OCO4)cc(OC)c1O (stereo not given in full) please
Output line: inactive

Input line: Do the same for COC(=O)C1=C(OC(=O)/C=C/c2ccccc2)C(C(=O)OC)[C@@]2(O)[C@@H](C(=O)OC)[C@H](C)C[C@@H]1[C@@H]2C(=O)OC (stereo not given in full) please
Output line: inactive

Input line: Do the same for Cc1cnc2[nH]c(-c3cccc(Cl)c3)cc(=O)c2c1 please
Output line: active

* * *

- System: K562
- experimental-details: NCI tumour cell line growth inhibition, 48 h
Activity calls are given as the source filed them. Rule as the data show it: active = GI50 up to about 1.1 µM and inactive = higher.
Your reply should match one of these outcome classes. true = active, false = inactive

Input line: Give the logged outcome of this assay for the following molecule: C[C@@H]1S[C@H](c2c(F)cccc2Cl)n2c1nc1ccccc12
Output line: false

Input line: Do the same for O=C(Nc1cccc2nsnc12)c1cc2c(cc1Cl)Sc1nccn1S2(=O)=O please
Output line: false

Input line: Do the same for C=C1CC2OC2(C(=O)O[C@H]2CCC3[C@@H]4CCC5=CC(=O)CC[C@]5(C)C4CC[C@@]32C)C1=O (stereo partly drawn) please
Output line: false

Input line: Do the same for C/C(=N\c1ccc(N(C)C)cc1)c1ccccc1 please
Output line: false

Input line: Do the same for NNc1ncc2c(n1)-c1ccccc1OC2 please
Output line: false

Input line: Do the same for CC(C)(C)c1cc(CCC(=O)Nc2ccc(Cl)cc2)nc(NC#N)n1 please
Output line: false

Input line: Do the same for CC(C)(C)C(=O)CC(=O)C(F)(F)C(F)(F)C(F)(F)F please
Output line: false

Input line: Do the same for CC1=C(C(=O)Nc2ccccc2C)C(/C=C/c2ccccc2)C(C(=O)Nc2ccccc2C)=C(C)N1 please
Output line: false

Input line: Do the same for c1ccc2c(c1)OCCc1cn[nH]c1-2 please
Output line: false

Input line: Do the same for CCCn1c(SCC)c2cc3cc4ccccc4cc3cc2c1-c1nc(F)nc(F)n1 please
Output line: false

Input line: Do the same for C[C@H](C(=O)C12CC3CC(CC(C3)C1)C2)[C@H](O)c1ccccc1 please
Output line: false

Input line: Do the same for Cc1cccc2nc3cccc(C(=O)NCCN(C)C)c3nc12 please
Output line: true

Input line: Do the same for CCN1CSC(=S)N(CC)C1 please
Output line: false

Input line: Do the same for O=C(O)COc1ccc2c3c1C(=O)CCC3CO2 (stereo not drawn) please
Output line: false

Input line: Do the same for SCc1ccc(CS)s1 please
Output line: false

Input line: Do the same for CCOC(=O)C1S/C(=N\c2ccc(OC)c(OC)c2)N=C1C (stereo not drawn) please
Output line: false

Input line: Do the same for Oc1ccc(/C=C/c2ccc3cccc(O)c3n2)cc1O please
Output line: false

Input line: Do the same for C=C(CN(C)C)C(=O)c1ccc(Oc2ccccc2)cc1 please
Output line: false

Input line: Do the same for OC1[C@@H]2[C@@H](O)CCCN2C[C@@H](O)[C@H]1O (stereo partly drawn) please
Output line: false

Input line: Do the same for CSc1s[s+]c(SC)c1[O-] please
Output line: false

Input line: Do the same for C=C[C@]1(C)CC(=O)C(C(C)C=O)[C@]12C(=O)Oc1cccc(C)c1C2=O (stereo partly drawn) please
Output line: false

Input line: Do the same for COC(=O)Cc1c([C@H]2[C@H](CC(=O)OC)c3ccccc3N2C(C)=O)[nH]c2ccccc12 please
Output line: false

Input line: Do the same for COc1cc(/C=C2/Oc3c(OC)cccc3C2=O)ccc1O please
Output line: false

* * *

- Tested on: SK-OV-3
- experimental-details: NCI tumour cell line growth inhibition, 48 h
Active and inactive are the calls of the source. No stated cut-off is given here; in the data, active = GI50 up to about 1.1 µM and inactive = higher.
So I've got a bunch of compounds here, and I need their GI50 values.

Input line: Under SK-OV-3: GI50 value of CC1(C)CC[C@]2(C(=O)O)CC[C@]3(C)C(=CC[C@@H]4[C@@]5(C)C[C@H](O)[C@H](O)[C@@](C)(CO)C5=CC[C@]43C)[C@@H]2C1 ?
Output line: > 100 µM (inactive)

Input line: Do the same for COc1cc(Nc2c(C#N)[n+]([O-])c3ccccc3[n+]2[O-])cc(OC)c1OC please
Output line: 15.7 µM (inactive)

Input line: Do the same for O=C(CC(=O)N(C(=O)/C=C\c1ccccc1)c1ccc(Cl)cc1)N1N=C(c2ccccc2)C(/N=N/c2cccc([N+](=O)[O-])c2)C1=O (centres undefined) please
Output line: 6.32 µM (inactive)

Input line: Do the same for CC(C)(c1ccc(C=O)o1)c1ccc(C(C)(C)c2ccc(C=O)o2)o1 please
Output line: > 100 µM (inactive)

* * *

So I've got a bunch of compounds here, and I need their GI50 values.
- System: SNB-19
- experimental-details: NCI tumour cell line growth inhibition, 48 h
Active and inactive are the calls of the source. Rule as the data show it: active = GI50 up to about 1.1 µM and inactive = higher.

Input line: Need GI50 of COc1cccc(NC(=O)C(=O)C(C(C)=O)c2nc3ccc(Cl)cc3nc2O)c1 (stereo unspecified) , thanks.
Output line: > 100 µM (inactive)

Input line: Do the same for O=C(/N=c1/[nH]/c(=N/C(=O)c2ccccc2)ss1)c1ccccc1 please
Output line: 33.5 µM (inactive)

Input line: Do the same for C[N+](C)(C)[BH-](Br)C(O)O (stereo unspecified) please
Output line: > 100 µM (inactive)

Input line: Do the same for COc1cc(C2c3cc4c(cc3[C@@H](Nc3ccc(C(=O)O)cc3)C3COC(=O)[C@H]23)OCO4)cc(OC)c1O (stereo partly specified) please
Output line: 6.11 µM (inactive)

Input line: Do the same for CCCCCCc1cc2cc(-c3cn4ccccc4n3)c(=O)oc2cc1O please
Output line: 13.2 µM (inactive)

Input line: Do the same for Cn1c(N)c(/N=N/c2ccc(S(N)(=O)=O)cc2)c(=O)n(C)c1=O please
Output line: 81.8 µM (inactive)

Input line: Do the same for Cc1c(Cl)cccc1NC(=O)c1cccc([N+](=O)[O-])c1O please
Output line: 8.55 µM (inactive)

Input line: Do the same for CC(C(=O)c1ccccc1)C(c1ccccc1)N1CCOCC1 (stereo unspecified) please
Output line: > 100 µM (inactive)

Input line: Do the same for COc1c2c(cc3nc4ccccc4nc13)CC[C@H](NC(C)=O)c1cc(=O)c(SC)ccc1-2 please
Output line: 0.446 µM (active)

Input line: Do the same for COc1ccc(C2SCc3nc4ccccc4n32)cc1 (stereo unspecified) please
Output line: 6.07 µM (inactive)

Input line: Do the same for N#CC(C#N)C(c1ccccc1)c1ccccc1 please
Output line: > 100 µM (inactive)
